target: Acetylcholinesterase from Electrophorus electricus (Electrophorus electricus, UniProt O42275); construct: purchased Sigma-Aldrich, Hamburg, Germany; test: biochemical; assay type: biochemical; settings: IC50(BChE)/IC50(AChE)
Sequence (O42275 24-633): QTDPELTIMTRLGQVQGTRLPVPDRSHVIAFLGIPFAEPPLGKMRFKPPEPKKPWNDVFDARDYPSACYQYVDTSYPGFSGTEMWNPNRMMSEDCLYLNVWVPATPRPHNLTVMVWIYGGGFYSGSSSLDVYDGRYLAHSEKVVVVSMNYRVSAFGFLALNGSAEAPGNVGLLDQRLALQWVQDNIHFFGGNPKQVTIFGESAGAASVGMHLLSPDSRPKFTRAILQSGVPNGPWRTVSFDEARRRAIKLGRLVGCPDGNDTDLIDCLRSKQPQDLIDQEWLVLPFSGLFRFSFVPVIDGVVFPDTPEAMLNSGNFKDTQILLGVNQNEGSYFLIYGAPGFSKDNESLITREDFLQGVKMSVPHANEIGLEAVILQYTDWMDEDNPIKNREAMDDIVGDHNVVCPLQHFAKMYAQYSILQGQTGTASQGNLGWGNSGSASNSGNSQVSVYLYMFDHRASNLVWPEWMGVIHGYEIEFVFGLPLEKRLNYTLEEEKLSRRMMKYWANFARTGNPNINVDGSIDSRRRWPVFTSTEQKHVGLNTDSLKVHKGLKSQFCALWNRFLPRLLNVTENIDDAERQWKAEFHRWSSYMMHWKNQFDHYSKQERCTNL

{"columns": ["compound", "SI AChE"],
 "data": [
  ["O=C(N/N=C/C1CCN(Cc2ccccc2)CC1)c1c[nH]c2ccccc12 [3c]", 2.45],
  ["O=C(N/N=C/C1CCN(Cc2ccccc2)CC1)c1ccc(O)cc1O [3b]", 13.22],
  ["COc1ccc(C(=O)N/N=C/C2CCN(Cc3ccccc3)CC2)cc1 [3d]", 20.19],
  ["O=C(N/N=C/c1ccc(O)cc1O)C1CCN(Cc2ccccc2)C1 (stereo not shown) [3f]", 1.28]
]}
